biological target: Histone acetyltransferase KAT2B (Homo sapiens, UniProt Q92831); assay: Inhibition of histone acetylase activity of human recombinant PCAF expressed in Escherichia coli at 50 uM using biotinylated oligopeptide sequences from histone H4 (2-24) substrate by In-vitro time-resolved fluorescence immunosorbent acetyltransferase assay
Sequence (Q92831 whole entry, looked up): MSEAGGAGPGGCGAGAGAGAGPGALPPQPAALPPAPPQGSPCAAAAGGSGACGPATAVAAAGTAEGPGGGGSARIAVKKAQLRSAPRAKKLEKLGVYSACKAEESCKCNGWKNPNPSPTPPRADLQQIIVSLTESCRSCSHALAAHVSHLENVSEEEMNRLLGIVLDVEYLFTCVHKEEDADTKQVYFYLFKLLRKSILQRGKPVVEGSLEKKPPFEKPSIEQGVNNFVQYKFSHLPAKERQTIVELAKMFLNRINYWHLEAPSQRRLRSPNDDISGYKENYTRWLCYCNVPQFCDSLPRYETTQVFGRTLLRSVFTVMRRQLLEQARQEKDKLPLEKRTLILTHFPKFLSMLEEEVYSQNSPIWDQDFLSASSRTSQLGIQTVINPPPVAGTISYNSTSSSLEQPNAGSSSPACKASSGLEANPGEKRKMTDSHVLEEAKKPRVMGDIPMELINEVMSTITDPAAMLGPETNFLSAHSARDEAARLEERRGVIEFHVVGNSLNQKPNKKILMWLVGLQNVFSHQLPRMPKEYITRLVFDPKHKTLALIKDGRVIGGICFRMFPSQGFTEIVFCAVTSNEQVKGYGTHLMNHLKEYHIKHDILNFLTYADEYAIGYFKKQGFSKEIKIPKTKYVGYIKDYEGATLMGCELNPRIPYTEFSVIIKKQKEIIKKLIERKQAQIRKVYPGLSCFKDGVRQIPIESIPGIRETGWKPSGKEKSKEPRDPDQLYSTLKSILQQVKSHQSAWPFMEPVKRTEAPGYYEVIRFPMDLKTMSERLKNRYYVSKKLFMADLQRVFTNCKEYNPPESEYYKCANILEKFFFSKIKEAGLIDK
reported property: inhibition

O=c1c2cccnc2sn1-c1ccc(Cl)cc1: 87%
O=c1c2cccnc2sn1-c1ccccc1: 88%
Cc1ccc(-n2sc3ncccc3c2=O)cc1: 75%
O=c1c2cccnc2sn1-c1ccc(Cl)c(Cl)c1: 91%

* * *

target: Histone acetyltransferase KAT2B (Homo sapiens); test: Inhibition of histone acetylase activity of human recombinant PCAF expressed in Escherichia coli using biotinylated oligopeptide sequences from histone H3 (1-21) substrate by In-vitro time-resolved fluorescence immunosorbent acetyltransferase assay
Sequence (Q92831 whole entry): as the sequence (Q92831 whole entry, looked up) above
pIC50: −log10 of the molar value.
reported property: pIC50

O=c1c2cccnc2sn1Cc1ccc(F)cc1: 4.06
O=c1c2cccnc2sn1-c1ccc(Br)cc1: 5.35
O=c1c2cccnc2sn1-c1ccc(Cl)c(Cl)c1: 5.34

* * *

biological target: Histone acetyltransferase KAT2B (Homo sapiens, UniProt Q92831); test: Inhibition of histone acetylase activity of human recombinant PCAF expressed in Escherichia coli at 50 uM using biotinylated oligopeptide sequences from histone H3 (1-21) substrate by In-vitro time-resolved fluorescence immunosorbent acetyltransferase assay
We use 20% as the dividing line for inhibition: on or above the line is label 1, below is label 0.

O=C(Cn1sc2cc(F)ccc2c1=O)Nc1nc(-c2ccccc2)cs1: label 1
Oc1nsc2ncccc12: label 0
Cc1cc(C)c2c(=O)n(CC(=O)Nc3ccc(Cl)cc3)sc2n1: label 1
O=c1c2ccccc2sn1-c1nc2ccccc2s1: label 1
O=C1c2cccnc2S(=O)(=O)N1Cc1ccc(Cl)c(Cl)c1: label 0
O=c1c2cccnc2[s+]([O-])n1Cc1ccc(Cl)c(Cl)c1 (configuration not stated): label 0
Cc1cc(C)c2c(=O)n(CC(=O)Nc3ccc(F)cc3C)sc2n1: label 1

* * *

# IC50 annotations
target: Histone acetyltransferase KAT2B (Homo sapiens, UniProt Q92831); assay: Inhibition of histone acetylase activity of human recombinant PCAF expressed in Escherichia coli using biotinylated oligopeptide sequences from histone H4 (2-24) substrate by In-vitro time-resolved fluorescence immunosorbent acetyltransferase assay
reported property: IC50 (µM)

O=c1c2cccnc2sn1-c1ccc(F)cc1: 0.72
O=c1c2cccnc2sn1-c1ccc([N+](=O)[O-])cc1: 2.99
Cc1cnc2sn(-c3ccc([N+](=O)[O-])cc3)c(=O)c2c1: 2.72
O=c1c2cc([N+](=O)[O-])cnc2sn1-c1ccc(Br)cc1: 0.86
O=c1c2cccnc2sn1Cc1ccc(C(F)(F)F)cc1: 25.5
COc1ccc(-n2sc3ncc([N+](=O)[O-])cc3c2=O)cc1: 1.83
O=c1c2ccc([N+](=O)[O-])cc2sn1Cc1ccccc1: 51.3
O=c1c2cc([N+](=O)[O-])cnc2sn1-c1ccc([N+](=O)[O-])cc1: 15.8

* * *

target: Histone acetyltransferase KAT2B (Homo sapiens); test: Inhibition of histone acetylase activity of human recombinant PCAF expressed in Escherichia coli using biotinylated oligopeptide sequences from histone H3 (1-21) substrate by In-vitro time-resolved fluorescence immunosorbent acetyltransferase assay
pIC50: −log10 of the molar value.
We use 5 as the dividing line for pIC50: on or above the line is T, below is F.

O=c1c2cccnc2sn1-c1ccc(F)c(F)c1: T
COc1ccc(-n2sc3ncc([N+](=O)[O-])cc3c2=O)cc1: T
O=c1c2cccnc2sn1Cc1ccc(Cl)cc1: F
O=c1c2cccnc2sn1-c1ccc([N+](=O)[O-])cc1: T
COc1ccc(-n2sc3ncc(C)cc3c2=O)cc1: T
Cc1ccc(Cn2sc3ncccc3c2=O)cc1: F
O=c1c2cccnc2sn1Cc1ccc(C(F)(F)F)cc1: F
O=c1c2cccnc2sn1-c1ccc(F)cc1: T
O=c1c2cc([N+](=O)[O-])cnc2sn1-c1ccc(Br)cc1: T
Cc1ccc(-n2sc3cc(F)ccc3c2=O)cc1: T
Cc1cnc2sn(-c3ccc(Br)cc3)c(=O)c2c1: T
O=c1c2cccnc2sn1Cc1ccccc1: F
COc1cccc(Cn2sc3ncccc3c2=O)c1: F
Cc1ccc(-n2sc3ncccc3c2=O)cc1: T
O=c1c2cccnc2sn1Cc1ccc(Cl)c(Cl)c1: T
Cc1cnc2sn(-c3ccc([N+](=O)[O-])cc3)c(=O)c2c1: F
O=c1c2cccnc2sn1-c1ccc(Cl)cc1: T
O=c1c2cccnc2sn1Cc1ccc(F)c(F)c1: F
O=c1ccsn1-c1ccc(Cl)c([N+](=O)[O-])c1: T
COc1ccc(-n2sc3ncccc3c2=O)cc1: T
COc1cccc(-n2sc3ncccc3c2=O)c1: T
CCCCc1ccc(-n2sc3ncccc3c2=O)cc1: F

Hello, the source for this data is ChEMBL document CHEMBL1795276, in case you need it.
